target_of_assay: Voltage-gated inwardly rectifying potassium channel KCNH2 (Homo sapiens)
Sequence (Q12809 whole entry): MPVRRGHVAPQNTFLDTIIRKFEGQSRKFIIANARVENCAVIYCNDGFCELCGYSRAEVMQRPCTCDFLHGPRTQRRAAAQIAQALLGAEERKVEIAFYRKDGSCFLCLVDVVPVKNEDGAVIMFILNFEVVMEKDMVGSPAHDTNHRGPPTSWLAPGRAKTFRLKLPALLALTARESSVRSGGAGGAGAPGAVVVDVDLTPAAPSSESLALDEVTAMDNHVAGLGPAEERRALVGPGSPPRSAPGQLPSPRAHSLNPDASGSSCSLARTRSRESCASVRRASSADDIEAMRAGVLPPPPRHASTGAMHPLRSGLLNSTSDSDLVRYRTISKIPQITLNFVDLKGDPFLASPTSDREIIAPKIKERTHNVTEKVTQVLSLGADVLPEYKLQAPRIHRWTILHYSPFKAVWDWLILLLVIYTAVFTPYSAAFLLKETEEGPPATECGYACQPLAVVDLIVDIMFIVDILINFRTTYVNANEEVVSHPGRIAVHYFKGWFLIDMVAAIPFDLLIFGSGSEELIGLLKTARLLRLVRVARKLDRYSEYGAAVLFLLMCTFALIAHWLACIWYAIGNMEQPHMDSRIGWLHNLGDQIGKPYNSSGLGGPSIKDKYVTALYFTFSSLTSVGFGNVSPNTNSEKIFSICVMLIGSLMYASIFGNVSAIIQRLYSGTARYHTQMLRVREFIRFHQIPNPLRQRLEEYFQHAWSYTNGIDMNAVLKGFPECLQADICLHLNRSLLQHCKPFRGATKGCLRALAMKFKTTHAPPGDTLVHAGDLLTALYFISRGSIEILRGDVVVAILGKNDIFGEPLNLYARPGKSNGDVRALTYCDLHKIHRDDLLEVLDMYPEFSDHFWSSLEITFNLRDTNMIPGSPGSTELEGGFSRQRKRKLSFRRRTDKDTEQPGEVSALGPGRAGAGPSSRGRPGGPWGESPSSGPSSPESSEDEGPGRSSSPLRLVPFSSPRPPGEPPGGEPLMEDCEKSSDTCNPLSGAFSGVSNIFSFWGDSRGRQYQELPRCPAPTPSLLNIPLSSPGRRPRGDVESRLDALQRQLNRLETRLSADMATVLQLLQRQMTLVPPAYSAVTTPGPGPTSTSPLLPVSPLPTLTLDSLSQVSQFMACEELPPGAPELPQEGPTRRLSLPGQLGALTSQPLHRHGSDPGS
method_notes: Inhibition of human ERG
outcome_measure: inhibition (INH)

>  <compound>
C[C@@H](OC(=O)Nc1c(-c2ccc(-c3ccc(C4(C(=O)O)CC4)cc3)cc2)cnn1C)c1cccc(C(F)(F)F)c1

>  <inhibition (INH)>
Not Active

$$$$
>  <compound>
C[C@@H](OC(=O)Nc1c(-c2ccccc2F)cnn1C)c1ccccc1Cl

>  <inhibition (INH)>
Not Active

$$$$
>  <compound>
C[C@@H](OC(=O)Nc1nncn1-c1ccc(-c2ccc(C3(C(=O)O)CC3)cc2)cc1)c1ccccc1

>  <inhibition (INH)>
Not Active

$$$$
>  <compound>
Cc1nnn(-c2ccc(-c3ccc(C4(C(=O)O)CC4)cc3)cc2)c1NC(=O)OC(C)C1CCC1 (racemic)

>  <inhibition (INH)>
Not Active

$$$$
>  <compound>
CC(C)[C@@H](C)OC(=O)Nc1c(-c2ccc(-c3ccc(C4(C(=O)O)CC4)cc3)cc2)nnn1C

>  <inhibition (INH)>
Not Active

$$$$

// returns reported inhibition (INH) for input `CC(C)[C@@H](C)OC(=O)Nc1c(-c2ccc(-c3ccc(C4(C(=O)O)CC4)cc3)cc2)cnn1C` Not Active

// returns reported inhibition (INH) for input `C[C@@H](OC(=O)Nc1c(-c2ccc(-c3ccc(C4(C(=O)O)CC4)cc3)cc2)nnn1C)c1ccccc1` Not Active

// returns reported inhibition (INH) for input `C[C@@H](OC(=O)Nc1c(-c2ccc(-c3ccc(C4(C(=O)O)CC4)cc3)cc2F)nnn1C)c1ccccc1` Not Active

// returns reported inhibition (INH) for input `C[C@@H](OC(=O)Nc1c(-c2ccc(-c3ccc(CC(=O)O)cc3)cc2)nnn1C)c1ccccc1` Not Active

// returns reported inhibition (INH) for input `Cc1nnn(-c2ccc(-c3ccc(C4(c5nnn[nH]5)CC4)cc3)cc2)c1NC(=O)O[C@H](C)c1ccccc1` Not Active

// returns reported inhibition (INH) for input `Cc1nnn(-c2ccc(-c3ccc(C4(C(=O)O)CC4)cc3)cc2)c1NC(=O)O[C@H](C)c1ccccc1` Not Active

// returns reported inhibition (INH) for input `Cc1nnn(-c2ccc(-c3ccc(C4(C(=O)O)CC4)cc3)cc2)c1NC(=O)O[C@H](C)c1ccccc1C(F)(F)F` Not Active

// returns reported inhibition (INH) for input `C[C@@H](OC(=O)Nc1c(-c2ccc(-c3ccc(C4(C(=O)O)CC4)cc3)cc2)cnn1C)c1ccccc1` Not Active

// returns reported inhibition (INH) for input `Cc1nnn(-c2ccc(-c3ccc(C4(C(=O)O)CC4)cc3)cc2)c1NC(=O)O[C@H](C)c1ccccc1F` Not Active

// returns reported inhibition (INH) for input `Cn1ncc(-c2ccc(-c3ccc(C4(C(=O)O)CC4)cc3)cc2)c1NC(=O)OC1CCC1` Not Active

// returns reported inhibition (INH) for input `CCc1nnn(-c2ccc(-c3ccc(C4(C(=O)O)CC4)cc3)cc2)c1NC(=O)O[C@H](C)c1ccccc1` Not Active

// returns reported inhibition (INH) for input `CC[C@@H](C)OC(=O)Nc1c(-c2ccc(-c3ccc(C4(C(=O)O)CC4)cc3)cc2)cnn1C` Not Active

* * *

# key: entry, value: inhibition
target_of_assay: Lysophosphatidic acid receptor 1 (Homo sapiens, UniProt Q92633)
Sequence (Q92633 whole entry): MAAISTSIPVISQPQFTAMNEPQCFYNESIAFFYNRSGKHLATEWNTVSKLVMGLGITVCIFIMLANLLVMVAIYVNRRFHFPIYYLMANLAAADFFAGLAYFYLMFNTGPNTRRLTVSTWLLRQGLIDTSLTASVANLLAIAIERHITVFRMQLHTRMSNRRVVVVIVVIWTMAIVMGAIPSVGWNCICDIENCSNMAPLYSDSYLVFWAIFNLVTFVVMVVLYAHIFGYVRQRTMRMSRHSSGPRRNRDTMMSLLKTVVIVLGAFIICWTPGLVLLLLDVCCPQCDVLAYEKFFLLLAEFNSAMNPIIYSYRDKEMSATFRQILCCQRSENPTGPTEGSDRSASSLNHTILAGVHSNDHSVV
method_notes: Antagonist activity at human recombinant LPA1 expressed in chem-1 cells assessed as inhibition of LPA-induced intracellular calcium mobilization at 30 uM incubated for 30 mins prior to LPA-challenge measured over 100 secs by FLIPR assay
Format: functional, cell-based
# value in %; strip the unit string

# annotated cases, reported inhibition shown
>  <structure_smiles_string>
C[C@@H](OC(=O)Nc1c(-c2ccccc2)cnn1C)c1ccccc1

>  <target_of_assay>
Lysophosphatidic acid receptor 1 (Homo sapiens, UniProt Q92633)

>  <recorded_number>
65

$$$$
>  <structure_smiles_string>
C[C@@H](OC(=O)Nc1nncn1-c1ccc(-c2ccc(C3(C(=O)O)CC3)cc2)cc1)c1ccccc1

>  <target_of_assay>
Lysophosphatidic acid receptor 1 (Homo sapiens, UniProt Q92633)

>  <recorded_number>
11

$$$$
>  <structure_smiles_string>
C[C@@H](OC(=O)Nc1nnn(C)c1-c1ccc(-c2ccc(C3(C(=O)O)CC3)cc2)cc1)c1ccccc1

>  <target_of_assay>
Lysophosphatidic acid receptor 1 (Homo sapiens, UniProt Q92633)

>  <recorded_number>
12

$$$$
>  <structure_smiles_string>
CCOC(=O)C1(c2ccc(-c3ccc(-c4cnn(C)c4NC(=O)O[C@H](C)c4ccccc4)cc3)cc2)CC1

>  <target_of_assay>
Lysophosphatidic acid receptor 1 (Homo sapiens, UniProt Q92633)

>  <recorded_number>
65

$$$$
>  <structure_smiles_string>
Cc1nnn(-c2ccc(-c3ccc(CC(=O)O)cc3)cc2)c1NC(=O)O[C@H](C)c1ccccc1

>  <target_of_assay>
Lysophosphatidic acid receptor 1 (Homo sapiens, UniProt Q92633)

>  <recorded_number>
41

$$$$

# next compound below
// returns reported inhibition for input `Cn1ncc(-c2ccc(-c3ccc(C4(C(=O)O)CC4)cc3)cc2)c1NC(=O)OC1COC1` 0
